- EXPERIMENT: ATG_AP_1_CIS: Attagene CIS-FACTORIAL HepG2 Assay for human Activator Protein 1 (AP-1) (AID 2282931)
- DETAILS: HepG2 Attagene cis-factorial AP-1 reporter mRNA; actives raise or lower the signal
Activity calls are given as the source filed them. Rule for the calls: active = hit-call score of the fitted dose curve at least 0.9, where 1 is the maximum; inactive = score below 0.9.
One label from this list, please: TRUE = active, FALSE = inactive

Below, 3 molecules whose answers are already recorded.
MOLECULE	CATEGORY_LABEL
O=C1OC(=O)C2C3C=CC(C3)C12 (stereo not drawn)	FALSE
CC(C)(O)c1coc(S(=O)(=O)NC(=O)Nc2c3c(cc4c2CCC4)CCC3)c1	FALSE
CC(C)CC(C)(O)C#CC(C)(O)CC(C)C (stereo not drawn)	FALSE

# fetch the recorded call for `CNCc1ccc(NC(=O)c2c[nH]c3c2C(=O)CCC3)cc1` here FALSE

# fetch the recorded call for CNS(=O)(=O)c1cc(C(=O)N2CCC(CCN3C4CCC3CC(n3c(C)nc5ccccc53)C4)(c3cccc(F)c3)CC2)c(Cl)cc1F (stereo not drawn) here FALSE

# fetch the recorded call for O=c1n(CC2CO2)c(=O)n(CC2CO2)c(=O)n1CC1CO1 (stereo not drawn) here TRUE

# fetch the recorded call for `COc1ccc(/C=C/S(=O)(=O)NC(=O)c2ccc(C)cc2Cl)cc1` here FALSE

# fetch the recorded call for `C=CCCCCCCCCC(=O)O` here FALSE

----------
- EXPERIMENT: BSK_SAg_Proliferation: Cell Proliferation Assessment in the BioMAP Diversity Plus: SAg Assay (AID 2283095);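 note: relative cell number as total protein by SRB absorbance in sub-confluent culture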
- DETAILS: primary human HUVEC with PBMC
Calls of active or inactive are those of the source. The calls were made as follows: active = hit-call score of the fitted dose curve at least 0.9, where 1 is the maximum; inactive = score below 0.9.
One label from this list, please: T (active), F (inactive)

SMILES_REPRESENTATION	CATEGORY_LABEL
Nc1cccc(N)c1	F
CC(=O)c1ccc2c(c1)[C@H](NC(=O)c1ccc(F)cc1)[C@@H](O)C(C)(C)O2	T
CCOC(=O)CC(CC(=O)OCC)(OC(C)=O)C(=O)OCC	F
Cc1ccc(O)cc1	F
CC(C)=CCCC(C)=CC=O	F
Cc1ccc(N)cc1O	T
NC(=O)NO	F
C[C@](N)(Cc1ccc(O)c(O)c1)C(=O)O	T
Nc1nc2ncc(CNc3ccc(C(=O)N[C@@H](CCC(=O)O)C(=O)O)cc3)nc2c(=O)[nH]1	F
CC(C)CCCCCCOC(=O)c1ccc(C(=O)OCCCCCCC(C)C)c(C(=O)OCCCCCCC(C)C)c1	F

# evaluate next
# fetch the recorded call for `CC(=O)OC[C@H]1O[C@@](COC(C)=O)(O[C@H]2O[C@H](COC(C)=O)[C@@H](OC(C)=O)[C@H](OC(C)=O)[C@H]2OC(C)=O)[C@@H](OC(C)=O)[C@@H]1OC(C)=O` here F

----------
- EXPERIMENT: Tanguay_ZF_120hpf_MORT_legacy: (Legacy) Oregon State University Tanguay Lab 120 Hour Post-fertilization zebrafish Assay for Mortality (AID 2283633)
Calls of active or inactive are those of the source. How the source made its calls: active means hit-call score of the fitted dose curve at least 0.9, where 1 is the maximum; inconclusive means response in the unintended direction; inactive means score below 0.9.
One label from this list, please: active, inactive

Below, 10 compounds whose answers are already recorded.
COMPOUND	CATEGORY_LABEL
CC(C)CCO	inactive
CCCCCCCCCCCCc1ccccc1	inactive
CC(C)=CCCC(C)CCO (stereo not given)	inactive
COCCOc1cc2cc(C(=O)NC3CCN(C(C)C)CC3)n(CC(=O)Nc3ccc(Cl)cn3)c2cn1	inactive
Cc1[nH]cnc1C[C@H]1CCc2c(C)c3ccccc3n2C1=O	inactive
CC(C)CCCCCCOC(=O)c1ccc(C(=O)OCCCCCCC(C)C)c(C(=O)OCCCCCCC(C)C)c1	inactive
Cn1c(=O)c2c(ncn2C)n(C)c1=O	inactive
CC(C)CCCCCCCOC(=O)CCCCC(=O)OCCCCCCCC(C)C	inactive
CCCCC(CC)COC(=O)CCCCCCCCC(=O)OCC(CC)CCCC (stereo not given)	inactive
O=C1CCC(N2C(=O)c3ccccc3C2=O)C(=O)N1 (stereo not given)	inactive

# fetch the recorded call for `O=C(O)c1cccc(N(Cc2cccnc2)c2ccc(OC(F)F)c(OC(F)F)c2)c1` here inactive

# fetch the recorded call for `COC(=O)CC(=O)OC` here inactive

# fetch the recorded call for `CC[C@H](C)C(=O)O[C@H]1C[C@@H](C)C=C2C=C[C@H](C)[C@H](CC[C@@H]3C[C@@H](O)CC(=O)O3)[C@H]21` here active

# fetch the recorded call for `Oc1ccc2c(c1)-c1ccccc1C2` here inactive

# fetch the recorded call for `COCCOCCOCCOC` here inactive

----------
- Read-out: Macrophage colony-stimulating factor (MCSF), CSF1 (gene 1435)
- EXPERIMENT: BSK_LPS_MCSF: BioMAP Diversity Plus: LPS Assay for Macrophage colony-stimulating factor (MCSF) Biomarker Activity (AID 2283083)
- DETAILS: primary human HUVEC with PBMC; actives raise or lower the signal
The source made the active and inactive calls. How the source made its calls: active means hit-call score of the fitted dose curve at least 0.9, where 1 is the maximum; inactive means score below 0.9.

SMILES_REPRESENTATION	outcome
CCCN(C1CCN(C(=O)C2CCNCC2)CC1)[C@@H]1CCc2ccc(OC)cc2C1	inactive
CCOC(=O)CC(CC(=O)OCC)(OC(C)=O)C(=O)OCC	inactive
Cc1c(-c2cccnc2)c2ccccc2n1CCCCC(=O)O	inactive

----------
- EXPERIMENT: Tanguay_ZF_120hpf_PFIN_legacy: (Legacy) Oregon State University Tanguay Lab 120 Hour Post-fertilization zebrafish Assay for Pectoral Fin Malformation (AID 2283648);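 note: each larva judged yes or no for fin defect by brightfield with dead larvae skipped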
Inconclusive results are not listed. Active and inactive are the calls of the source. How the source made its calls: active means hit-call score of the fitted dose curve at least 0.9, where 1 is the maximum; inconclusive means response in the unintended direction; inactive means score below 0.9.
One label from this list, please: active, inactive

Below, 6 compounds whose answers are already recorded.
COMPOUND	CATEGORY_LABEL
CCCC(=O)OCC	inactive
O=C1OC(=O)C2C3C=CC(C3)C12 (configuration not stated)	inactive
Nc1ccc(Nc2ccccc2)cc1	active
Cc1ccc(N)cc1O	inactive
CC(O)CN(CCN(CC(C)O)CC(C)O)CC(C)O (configuration not stated)	inactive
C1N2CN3CN1CN(C2)C3	inactive

# fetch the recorded call for `Cn1c(=O)cc(Oc2ccc(F)cc2F)c2cnc(NCC(C)(C)O)nc21` here inactive

# fetch the recorded call for `Clc1nc(Cl)c(Cl)c(Cl)c1Cl` here inactive

# fetch the recorded call for `CCOc1cccc(-n2cc(C(=O)N3CCN(c4cc(C(=O)O)c5ccccc5c4)CC3)nc2-c2ccc(C)cc2)c1` here inactive

# fetch the recorded call for O=C1CCC(N2C(=O)c3ccccc3C2=O)C(=O)N1 (configuration not stated) here inactive

# fetch the recorded call for `COc1cccc(-c2ccc(/C=C\CN3CCCCCC3)cc2Cl)c1` here inactive

# fetch the recorded call for `C1=CCCC=CCCC=CCC1` here inactive

----------
- Read-out: Cytochrome P450 3A4 (Homo sapiens) (UniProt P08684)
- Sequence (P08684 whole entry, looked up): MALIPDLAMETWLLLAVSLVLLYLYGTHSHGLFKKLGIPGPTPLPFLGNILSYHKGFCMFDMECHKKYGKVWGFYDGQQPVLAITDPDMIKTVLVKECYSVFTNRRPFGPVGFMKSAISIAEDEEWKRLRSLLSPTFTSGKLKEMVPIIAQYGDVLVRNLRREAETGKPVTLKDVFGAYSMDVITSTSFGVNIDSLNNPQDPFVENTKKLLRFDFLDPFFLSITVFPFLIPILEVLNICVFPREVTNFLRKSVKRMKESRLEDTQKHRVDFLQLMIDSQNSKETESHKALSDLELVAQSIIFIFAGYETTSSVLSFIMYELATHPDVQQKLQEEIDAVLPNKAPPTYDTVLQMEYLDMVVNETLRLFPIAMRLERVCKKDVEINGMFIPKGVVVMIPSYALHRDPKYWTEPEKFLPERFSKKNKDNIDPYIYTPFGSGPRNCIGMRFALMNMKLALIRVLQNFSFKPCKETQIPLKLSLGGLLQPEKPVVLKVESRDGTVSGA
- EXPERIMENT: LTEA_HepaRG_CYP3A4: Life Technologies and Expression Analysis (LTEA) Assay for CYP3A4 using HepaRG (AID 2283487)
- DETAILS: mRNA level, 48 h; actives raise or lower the signal
Calls of active or inactive are those of the source. How the source made its calls: active means hit-call score of the fitted dose curve at least 0.9, where 1 is the maximum; inactive means score below 0.9.
One label from this list, please: t (active), f (inactive)

Below, 4 compounds whose answers are already recorded.
COMPOUND	CATEGORY_LABEL
CCOC(=O)COc1ccc2c(c1)CC(NCC(O)c1cccc(Cl)c1)CC2 (stereo unspecified)	f
CC(C)c1cccc(C(C)C)c1N1C(=O)c2ccc(O)cc2C1=O	t
COc1ccc(/C=C/S(=O)(=O)NC(=O)c2ccc(C)cc2Cl)cc1	f
Cc1c(-c2cccnc2)c2ccccc2n1CCCCC(=O)O	f

# fetch the recorded call for `O=C(O)c1cccc(Oc2ccccc2)c1` here f

# fetch the recorded call for `CCCCCCCCO` here f

----------
- Read-out: Interferon-gamma inducible Protein 10 (IP10), CXCL10 (gene 3627)
- EXPERIMENT: BSK_BE3C_IP10: BioMAP Diversity Plus: BE3C Assay for Interferon-gamma inducible Protein 10 (IP10) Biomarker Activity (AID 2283034)
- DETAILS: primary human bronchial epithelial cells; actives raise or lower the signal
Active and inactive are the calls of the source. How the source made its calls: active means hit-call score of the fitted dose curve at least 0.9, where 1 is the maximum; inactive means score below 0.9.
OBSERVATION_TYPE: AC50

Example entries and their recorded answers appear below.
SMILES_REPRESENTATION	RESULT
CN(C)c1ccc(Cc2ccc(N(C)C)cc2)cc1	28.8 µM (active)
CC(C)(O)c1coc(S(=O)(=O)NC(=O)Nc2c3c(cc4c2CCC4)CCC3)c1	inactive
C[C@](N)(Cc1ccc(O)c(O)c1)C(=O)O	inactive
CC(=O)OC[C@H]1O[C@@](COC(C)=O)(O[C@H]2O[C@H](COC(C)=O)[C@@H](OC(C)=O)[C@H](OC(C)=O)[C@H]2OC(C)=O)[C@@H](OC(C)=O)[C@@H]1OC(C)=O	inactive
CCOCCOCCOCCO	inactive

Can you look up the measured AC50 of `CCC(C)(C)C(=O)O[C@H]1C[C@@H](C)C=C2C=C[C@H](C)[C@H](CC[C@@H]3C[C@@H](O)CC(=O)O3)[C@H]21` for me? 34.1 µM (active)

Can you look up the measured AC50 of `Cc1ccc(C)c(O)c1` for me? inactive

Can you look up the measured AC50 of `CNCc1ccc(NC(=O)c2c[nH]c3c2C(=O)CCC3)cc1` for me? inactive

Can you look up the measured AC50 of `O=C(CCCCCCCCc1cccnc1)N1CCC(C=C(c2ccccc2)c2ccccc2)CC1` for me? 24.5 µM (active)
